tested on: RARb homodimer (NR concentration 270 nM); test: PBM binding z-score (relative to random genomic background probes); higher = stronger binding; sequences stand for … in GC…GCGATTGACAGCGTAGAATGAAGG
Decision: PBM binding z-score >= 2 yields true, all other cases yield false.

# monomer-sequence, class
records = [
    ("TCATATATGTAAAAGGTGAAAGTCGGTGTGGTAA", "false"),
]

Qu. Confirm if PBM binding z-score reported for the sequence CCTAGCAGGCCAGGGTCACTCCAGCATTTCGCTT is 2 or above.
Ans. true

Qu. Confirm if PBM binding z-score reported for the sequence GATAAAGGGTCAAGGCCAGAGTACGCGTATTGAT is 2 or above.
Ans. true

Qu. Confirm if PBM binding z-score reported for the sequence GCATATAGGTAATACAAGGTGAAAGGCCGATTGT is 2 or above.
Ans. false

Qu. Confirm if PBM binding z-score reported for the sequence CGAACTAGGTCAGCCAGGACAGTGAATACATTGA is 2 or above.
Ans. true

Qu. Confirm if PBM binding z-score reported for the sequence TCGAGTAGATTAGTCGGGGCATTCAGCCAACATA is 2 or above.
Ans. false

Qu. Confirm if PBM binding z-score reported for the sequence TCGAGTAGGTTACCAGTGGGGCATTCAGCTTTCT is 2 or above.
Ans. false

Qu. Confirm if PBM binding z-score reported for the sequence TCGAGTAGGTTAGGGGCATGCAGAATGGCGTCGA is 2 or above.
Ans. false

Qu. Confirm if PBM binding z-score reported for the sequence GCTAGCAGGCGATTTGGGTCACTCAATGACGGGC is 2 or above.
Ans. false

Qu. Confirm if PBM binding z-score reported for the sequence ATTCAAAGTTCACTAGGTAACGTAAGATTCAGCT is 2 or above.
Ans. true

Qu. Confirm if PBM binding z-score reported for the sequence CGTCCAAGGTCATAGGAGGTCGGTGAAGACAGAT is 2 or above.
Ans. true

Qu. Confirm if PBM binding z-score reported for the sequence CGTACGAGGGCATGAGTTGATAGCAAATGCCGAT is 2 or above.
Ans. false

====

test system: LXRb:RXRa (NR concentration 270 nM, RXRa partner concentration 90 nM); experiment: PBM binding z-score (relative to random genomic background probes); higher = stronger binding; sequences stand for … in GC…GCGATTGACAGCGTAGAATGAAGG
Decision: PBM binding z-score >= 0.5 yields met, all other cases yield not met.

# monomer-sequence, class
records = [
    ("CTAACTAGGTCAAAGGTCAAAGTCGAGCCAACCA", "met"),
]

Qu. Confirm if PBM binding z-score reported for the sequence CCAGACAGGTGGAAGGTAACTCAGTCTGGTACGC is 0.5 or above.
Ans. not met

Qu. Confirm if PBM binding z-score reported for the sequence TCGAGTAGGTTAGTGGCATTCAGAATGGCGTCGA is 0.5 or above.
Ans. not met

====

test system: RXRa homodimer (NR concentration 180 nM); assay: PBM binding z-score (relative to random genomic background probes); higher = stronger binding; sequences stand for … in GC…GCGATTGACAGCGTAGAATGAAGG
Decision: PBM binding z-score >= 1 yields satisfied, all other cases yield not satisfied.

Past entries and their recorded results:
# monomer-sequence, class
data = [
    ("AGTCAAAGCTCAGGACGAGGTAACGTAAAGCACG", "not satisfied"),
    ("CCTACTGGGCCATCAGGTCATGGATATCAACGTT", "satisfied"),
    ("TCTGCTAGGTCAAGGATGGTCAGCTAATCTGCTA", "satisfied"),
]

Qu. Confirm if PBM binding z-score reported for the sequence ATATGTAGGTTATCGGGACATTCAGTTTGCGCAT is 1 or above.
Ans. satisfied

Qu. Confirm if PBM binding z-score reported for the sequence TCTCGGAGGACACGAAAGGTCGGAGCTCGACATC is 1 or above.
Ans. satisfied
